target: recombinant PI3K (p110δ/p85α) (Homo sapiens, UniProt O00329); assay: PI3Kδ ADP-Glo kinase assay; assay type: biochemical; details: read-out: PI3Kδ Enzyme activity IC50
Sequence (O00329 whole entry, one chain of several): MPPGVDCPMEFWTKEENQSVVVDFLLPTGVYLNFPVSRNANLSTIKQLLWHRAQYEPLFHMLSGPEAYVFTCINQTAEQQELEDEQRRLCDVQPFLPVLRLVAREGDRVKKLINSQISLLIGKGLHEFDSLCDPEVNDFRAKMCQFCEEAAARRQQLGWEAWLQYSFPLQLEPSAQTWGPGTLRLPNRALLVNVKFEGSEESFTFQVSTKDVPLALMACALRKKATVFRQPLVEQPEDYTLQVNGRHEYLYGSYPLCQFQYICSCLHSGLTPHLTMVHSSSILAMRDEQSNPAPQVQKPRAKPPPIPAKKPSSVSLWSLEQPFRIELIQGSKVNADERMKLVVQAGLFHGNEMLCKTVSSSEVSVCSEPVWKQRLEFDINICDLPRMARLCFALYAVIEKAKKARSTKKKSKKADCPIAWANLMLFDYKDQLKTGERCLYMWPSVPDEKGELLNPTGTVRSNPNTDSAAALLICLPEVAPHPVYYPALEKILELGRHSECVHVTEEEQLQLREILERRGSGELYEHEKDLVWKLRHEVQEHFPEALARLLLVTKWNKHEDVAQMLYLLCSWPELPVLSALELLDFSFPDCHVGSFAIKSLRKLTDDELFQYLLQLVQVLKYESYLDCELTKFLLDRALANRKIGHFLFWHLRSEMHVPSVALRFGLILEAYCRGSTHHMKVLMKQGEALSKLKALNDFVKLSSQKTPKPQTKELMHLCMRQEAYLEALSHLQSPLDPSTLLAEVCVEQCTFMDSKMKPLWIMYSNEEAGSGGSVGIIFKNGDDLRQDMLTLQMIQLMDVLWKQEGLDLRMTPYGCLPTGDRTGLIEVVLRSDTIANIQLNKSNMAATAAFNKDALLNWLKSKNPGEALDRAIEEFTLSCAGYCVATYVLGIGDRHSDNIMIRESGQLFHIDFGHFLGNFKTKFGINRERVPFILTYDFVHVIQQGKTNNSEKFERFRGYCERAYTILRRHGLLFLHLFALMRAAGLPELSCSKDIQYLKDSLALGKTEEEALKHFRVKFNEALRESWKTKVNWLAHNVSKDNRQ
pIC50: −log10 of the molar value.
Respond with fulfilled for pIC50 values of 8 and above, not fulfilled for values below.

molecule | assigned class
CCOc1c([C@@H](C)c2nc(Cl)c3c(N)nccn23)cc(Cl)c(F)c1-c1ccc(C(F)(F)F)nc1 [Compound 41B] | not fulfilled
CCOc1c(C(C)c2nc(Cl)c3c(N)nccn23)cc(Cl)c(F)c1C1CCOCC1 (single isomer, unassigned) [Compound 49A] | fulfilled
COc1ccc(-c2c(C)c(Cl)cc(C(C)c3nc(Br)c4c(N)nccn34)c2OC)cn1 (stereo not shown) [Compound 20] | fulfilled
Cc1c(Cl)cc([C@H](C)c2nc(Br)c3c(N)nccn23)c(OC(C)C)c1-c1ccc(C(F)(F)F)nc1 [Compound 38A] | fulfilled

// next entry
Exam item: decide whether the reported pIC50 for Cc1nc(C(C)c2cc(Cl)c(F)c(-c3ccc(C#N)nc3)c2OC(C)C)n2ccnc(N)c12 (single isomer, unassigned) [Compound 59B] is at least 8.
not fulfilled

----------
target: recombinant PI3K (p110α/p85α) (Homo sapiens, UniProt P42336); assay: PI3Kα ADP-Glo kinase assay; type: biochemical; details: PI3Kα Enzyme activity IC50
Sequence (P42336 whole entry): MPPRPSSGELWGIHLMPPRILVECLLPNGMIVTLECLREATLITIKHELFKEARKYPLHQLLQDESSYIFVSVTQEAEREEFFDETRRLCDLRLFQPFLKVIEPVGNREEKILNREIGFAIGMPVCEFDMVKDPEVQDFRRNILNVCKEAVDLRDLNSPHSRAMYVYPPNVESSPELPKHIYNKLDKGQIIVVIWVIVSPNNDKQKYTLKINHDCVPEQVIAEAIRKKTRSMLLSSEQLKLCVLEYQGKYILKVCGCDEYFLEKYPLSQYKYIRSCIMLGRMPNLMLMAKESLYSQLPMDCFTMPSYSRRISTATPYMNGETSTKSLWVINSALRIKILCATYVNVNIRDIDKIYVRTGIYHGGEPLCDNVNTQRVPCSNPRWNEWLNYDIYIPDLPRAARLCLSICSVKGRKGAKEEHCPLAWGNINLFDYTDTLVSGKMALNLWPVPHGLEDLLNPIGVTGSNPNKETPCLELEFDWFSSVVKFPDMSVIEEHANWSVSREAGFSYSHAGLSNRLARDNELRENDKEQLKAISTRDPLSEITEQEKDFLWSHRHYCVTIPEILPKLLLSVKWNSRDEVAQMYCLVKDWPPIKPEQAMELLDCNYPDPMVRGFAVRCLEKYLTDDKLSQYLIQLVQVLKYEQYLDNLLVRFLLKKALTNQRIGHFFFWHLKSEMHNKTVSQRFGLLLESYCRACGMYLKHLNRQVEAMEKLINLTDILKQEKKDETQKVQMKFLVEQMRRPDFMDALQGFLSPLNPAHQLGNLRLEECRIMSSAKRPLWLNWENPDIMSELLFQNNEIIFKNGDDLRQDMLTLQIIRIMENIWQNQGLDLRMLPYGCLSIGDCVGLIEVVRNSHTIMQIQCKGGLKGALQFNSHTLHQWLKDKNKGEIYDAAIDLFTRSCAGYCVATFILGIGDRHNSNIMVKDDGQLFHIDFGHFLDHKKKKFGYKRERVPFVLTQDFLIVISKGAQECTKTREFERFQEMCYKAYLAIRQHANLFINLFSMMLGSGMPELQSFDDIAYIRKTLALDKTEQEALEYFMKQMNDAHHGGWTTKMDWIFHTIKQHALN
Sequence (P27986 whole entry partner): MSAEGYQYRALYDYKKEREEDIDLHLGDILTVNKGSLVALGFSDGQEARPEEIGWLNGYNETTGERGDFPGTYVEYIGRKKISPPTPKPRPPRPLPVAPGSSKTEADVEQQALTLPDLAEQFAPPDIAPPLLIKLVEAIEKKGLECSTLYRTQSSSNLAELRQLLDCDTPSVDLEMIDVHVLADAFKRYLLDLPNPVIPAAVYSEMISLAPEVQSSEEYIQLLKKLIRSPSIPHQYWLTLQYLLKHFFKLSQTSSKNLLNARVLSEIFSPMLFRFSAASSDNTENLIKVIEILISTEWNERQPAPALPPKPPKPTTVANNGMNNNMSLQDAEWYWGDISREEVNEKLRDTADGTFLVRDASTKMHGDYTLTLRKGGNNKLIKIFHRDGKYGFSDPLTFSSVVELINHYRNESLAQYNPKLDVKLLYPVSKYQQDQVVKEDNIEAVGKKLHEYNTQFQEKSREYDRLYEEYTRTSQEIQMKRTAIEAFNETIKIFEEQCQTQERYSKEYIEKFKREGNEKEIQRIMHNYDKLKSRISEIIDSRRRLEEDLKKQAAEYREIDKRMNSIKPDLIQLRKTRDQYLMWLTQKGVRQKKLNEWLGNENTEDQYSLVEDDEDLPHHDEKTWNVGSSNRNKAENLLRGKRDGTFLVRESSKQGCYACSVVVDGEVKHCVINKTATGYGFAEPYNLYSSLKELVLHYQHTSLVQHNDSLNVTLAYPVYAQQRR
Below, each entry is listed alongside its reported pIC50.
Scale: negative log10 of molar concentration, which is what pIC50 denotes.

compound | pIC50
CCOc1c(C(C)c2nc(Br)c3c(N)nccn23)cc(Cl)c(C)c1-c1ccc(OC)nc1 (centres unmarked) [Compound 28] | 5.64
COc1c(C(C)c2nc(Br)c3c(N)nccn23)cc(Cl)c(C)c1-c1ccc(C)nc1 (centres unmarked) [Compound 19] | 6.24
CC(C)Oc1c([C@H](C)c2nc(Cl)c3c(N)nccn23)cc(Cl)c(F)c1-c1ccc(C(F)(F)F)nc1 [Compound 40A] | 4.48

Please look up its pIC50: CC(C)Oc1c(C(C)c2nc(Cl)c3c(N)nccn23)cc(Cl)c(F)c1C1CNC(=O)C1 (single isomer, unassigned) [Compound 48B]
5.89

Please look up its pIC50: CC(C)Oc1c([C@H](C)c2nc(Cl)c3c(N)nccn23)cc(Cl)c(F)c1-c1ccc(C(=O)N(C)C)nc1 [Compound 16A]
6.10

----------
target: PI3K (p110β/p85α) (Homo sapiens); assay: PI3Kβ ADP-Glo kinase assay; format: biochemical; settings: read-out: PI3Kβ Enzyme activity IC50
Sequence (P42338 whole entry, one chain of several): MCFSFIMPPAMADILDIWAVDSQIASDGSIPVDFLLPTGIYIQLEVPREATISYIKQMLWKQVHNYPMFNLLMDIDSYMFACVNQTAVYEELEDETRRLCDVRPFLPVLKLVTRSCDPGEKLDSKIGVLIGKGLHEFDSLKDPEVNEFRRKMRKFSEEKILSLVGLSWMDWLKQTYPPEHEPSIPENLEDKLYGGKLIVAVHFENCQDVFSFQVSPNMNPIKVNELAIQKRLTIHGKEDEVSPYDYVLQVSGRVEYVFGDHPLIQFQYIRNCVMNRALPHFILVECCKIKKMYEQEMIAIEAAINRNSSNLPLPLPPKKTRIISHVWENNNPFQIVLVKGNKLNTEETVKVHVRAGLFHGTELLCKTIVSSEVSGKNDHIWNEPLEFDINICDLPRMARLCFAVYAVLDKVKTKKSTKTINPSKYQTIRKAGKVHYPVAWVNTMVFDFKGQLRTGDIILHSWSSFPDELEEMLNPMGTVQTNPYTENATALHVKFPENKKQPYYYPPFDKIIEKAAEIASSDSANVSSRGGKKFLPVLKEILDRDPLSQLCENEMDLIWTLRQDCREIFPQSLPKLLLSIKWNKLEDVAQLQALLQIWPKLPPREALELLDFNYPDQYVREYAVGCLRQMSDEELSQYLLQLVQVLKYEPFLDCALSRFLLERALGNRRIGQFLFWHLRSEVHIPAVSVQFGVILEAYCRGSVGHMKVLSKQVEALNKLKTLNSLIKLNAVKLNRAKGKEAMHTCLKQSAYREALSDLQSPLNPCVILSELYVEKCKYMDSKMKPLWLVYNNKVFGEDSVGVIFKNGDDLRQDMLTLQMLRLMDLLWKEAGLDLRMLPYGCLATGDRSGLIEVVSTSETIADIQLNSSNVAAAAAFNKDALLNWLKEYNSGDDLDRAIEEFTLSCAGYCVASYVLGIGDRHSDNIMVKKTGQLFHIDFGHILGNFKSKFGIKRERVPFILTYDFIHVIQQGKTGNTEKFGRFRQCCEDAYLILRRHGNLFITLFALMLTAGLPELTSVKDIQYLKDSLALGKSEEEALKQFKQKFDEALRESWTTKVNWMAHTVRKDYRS
pIC50: −log10 of the molar value.
value kind: pIC50

compound | pIC50
CCOc1c(C(C)c2nc(Cl)c3c(N)nccn23)cc(Cl)c(F)c1-c1ccc(C(F)(F)F)nc1OC (stereo not drawn) [Compound 43] | < 4.30
CC(C)Oc1c(C(C)c2nc(Cl)c3c(N)nccn23)cc(Cl)c(F)c1-c1ccc(C(F)(F)F)nc1 (stereo not drawn) [Compound 40] | < 4.30

Here's the next entry for you.
Please look up its pIC50: CCOc1c([C@H](C)c2nc(Cl)c3c(N)nccn23)cc(Cl)c(F)c1-c1ccc(C(F)(F)F)nc1OC [Compound 43A]
< 4.30

----------
molecular target: recombinant PI3K (p110δ/p85α) (Homo sapiens, UniProt O00329); test: PI3Kδ ADP-Glo kinase assay; type: biochemical; conditions: read-out: PI3Kδ Enzyme activity IC50
Define the label as Criterion met when IC50 is strictly less than 2 nM and as Criterion not met in all remaining cases.

Look over these answered cases.
compound | assigned class
CCOc1c([C@@H](C)c2nc(Cl)c3c(N)nccn23)cc(Cl)c(F)c1-c1ccc(C(F)(F)F)nc1OC [Compound 43B] | Criterion not met
CCCOc1c(C(C)c2nc(Cl)c3c(N)nccn23)cc(Cl)c(F)c1-c1ccc(C(F)(F)F)nc1 (centres unmarked) | Criterion not met
CC(C)Oc1c(C(C)c2nc(Cl)c3c(N)nccn23)cc(Cl)c(F)c1-c1ccc(C(F)(F)F)nc1 (centres unmarked) | Criterion not met
CCOc1c(C(C)c2nc(Cl)c3c(N)nccn23)cc(Cl)c(C)c1C1CNC(=O)C1 (centres unmarked) | Criterion met
CCOc1c([C@H](C)c2nc(Cl)c3c(N)nccn23)cc(Cl)c(C)c1-c1ccc(Cl)nc1 [Compound 27A] | Criterion met
CCOc1c(C(C)c2nc(Cl)c3c(N)nccn23)cc(Cl)c(C)c1-c1ccc(Cl)nc1 (centres unmarked) | Criterion not met
Cc1nn(C(C)c2cc(Cl)c(C#N)c(=O)n2-c2ccccc2)c2ncnc(N)c12 (centres unmarked) | Criterion not met
CC(C)Oc1c(C(C)c2nc(Cl)c3c(N)nccn23)cc(Cl)c(F)c1C1CNC(=O)C1 (centres unmarked) [Compound 48] | Criterion met

# strict comparison: is reported IC50 < 2 nM? input = `Cc1nc([C@@H](C)c2cc(Cl)c(F)c(-c3ccc(C(=O)N4CCC[C@@H]4C(=O)O)nc3)c2OC(C)C)n2ccnc(N)c12`
Criterion met

# strict comparison: is reported IC50 < 2 nM? input = Cc1nc(C(C)c2cc(Cl)c(F)c(-c3ccc(C#N)nc3)c2OC(C)C)n2ccnc(N)c12 (centres unmarked) [Compound 59]
Criterion not met

# strict comparison: is reported IC50 < 2 nM? input = CCOc1c(C(C)c2nc(Cl)c3c(N)nccn23)cc(Cl)c(F)c1C1CCOCC1 (single isomer, unassigned) [Compound 49B]
Criterion not met

# strict comparison: is reported IC50 < 2 nM? input = CCOc1c(C(C)c2nc(Cl)c3c(N)nccn23)cc(Cl)c(Cl)c1-c1ccc(C(F)(F)F)nc1 (centres unmarked)
Criterion not met

# strict comparison: is reported IC50 < 2 nM? input = CC(C)Oc1c([C@@H](C)c2nc(Cl)c3c(N)nccn23)cc(Cl)c(F)c1-c1ccc(C(=O)N(C)C)nc1 [Compound 16B]
Criterion not met

# strict comparison: is reported IC50 < 2 nM? input = `CCOc1c([C@H](C)c2nc(Cl)c3c(N)nccn23)cc(Cl)c(C)c1-c1ccc(C(=O)O)nc1`
Criterion met

----------
target: PI3K (p110γ) (Homo sapiens, UniProt P48736); assay: PI3Kγ ADP-Glo kinase assay; type: biochemical; conditions: read-out: PI3Kγ Enzyme activity IC50
Sequence (P48736 whole entry): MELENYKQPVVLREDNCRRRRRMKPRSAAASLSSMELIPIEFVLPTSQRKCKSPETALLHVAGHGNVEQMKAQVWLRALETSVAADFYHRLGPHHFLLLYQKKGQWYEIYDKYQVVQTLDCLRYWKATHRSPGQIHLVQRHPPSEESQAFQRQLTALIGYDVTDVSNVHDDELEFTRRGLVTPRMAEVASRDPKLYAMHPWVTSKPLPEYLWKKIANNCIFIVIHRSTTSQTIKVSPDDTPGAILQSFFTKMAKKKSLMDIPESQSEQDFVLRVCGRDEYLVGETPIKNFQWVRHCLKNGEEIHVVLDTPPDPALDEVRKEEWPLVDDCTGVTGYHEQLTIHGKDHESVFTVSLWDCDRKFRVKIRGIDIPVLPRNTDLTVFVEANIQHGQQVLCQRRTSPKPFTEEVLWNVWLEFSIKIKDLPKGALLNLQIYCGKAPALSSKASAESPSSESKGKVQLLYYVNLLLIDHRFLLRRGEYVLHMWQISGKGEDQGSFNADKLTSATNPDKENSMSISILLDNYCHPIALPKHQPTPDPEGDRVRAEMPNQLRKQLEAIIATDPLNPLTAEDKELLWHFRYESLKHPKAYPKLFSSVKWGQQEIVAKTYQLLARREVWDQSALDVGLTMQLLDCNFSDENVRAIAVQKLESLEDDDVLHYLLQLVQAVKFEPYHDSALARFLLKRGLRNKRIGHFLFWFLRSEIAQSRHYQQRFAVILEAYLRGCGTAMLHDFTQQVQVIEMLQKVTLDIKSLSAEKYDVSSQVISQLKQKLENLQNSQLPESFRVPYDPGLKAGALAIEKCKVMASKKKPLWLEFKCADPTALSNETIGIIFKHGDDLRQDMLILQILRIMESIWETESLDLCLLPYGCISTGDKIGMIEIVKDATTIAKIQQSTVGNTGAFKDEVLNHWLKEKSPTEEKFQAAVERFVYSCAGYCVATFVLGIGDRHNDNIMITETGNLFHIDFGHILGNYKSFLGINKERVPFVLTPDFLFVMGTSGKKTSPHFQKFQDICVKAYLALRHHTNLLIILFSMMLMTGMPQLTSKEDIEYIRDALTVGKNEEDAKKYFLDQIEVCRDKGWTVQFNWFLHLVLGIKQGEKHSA
Define the label as Fulfilled when IC50 is strictly less than 2000 nM and as Not fulfilled in all remaining cases.

compound | assigned class
CCOc1c([C@H](C)c2nc(Cl)c3c(N)nccn23)cc(Cl)c(F)c1-c1ccc(C(F)(F)F)nc1OC [Compound 43A] | Not fulfilled
COc1c(C(C)c2nc(Br)c3c(N)nccn23)cc(Cl)c(C)c1-c1c(C)noc1C (centres unmarked) | Fulfilled
CC(C)Oc1c(C(C)c2nc(Cl)c3c(N)nccn23)cc(Cl)c(F)c1-c1ccc(C(N)=O)nc1 (centres unmarked) | Fulfilled
Cc1nc([C@@H](C)c2cc(Cl)c(F)c(-c3ccc(C(=O)N4CC[C@@H](O)C4)nc3)c2OC(C)C)n2ccnc(N)c12 | Not fulfilled
CCOc1c(C(C)c2nc(Cl)c3c(N)nccn23)cc(Cl)c(C)c1-c1ccc(C(F)(F)F)nc1 (centres unmarked) | Fulfilled

# strict comparison: is reported IC50 < 2000 nM? input = CCOc1c(C(C)c2nc(Br)c3c(N)nccn23)cc(Cl)c(C)c1-c1ccc(C(F)(F)F)nc1 (centres unmarked)
Not fulfilled

# strict comparison: is reported IC50 < 2000 nM? input = CCOc1c(C(C)c2nc(-c3cccc(O)c3)c3c(N)nccn23)cc(Cl)c(C)c1-c1ccc(C(F)(F)F)nc1 (centres unmarked)
Fulfilled

# strict comparison: is reported IC50 < 2000 nM? input = `Cc1nc([C@@H](C)c2cc(Cl)c(F)c(-c3ccc(C(=O)N4CCC[C@@H]4C(=O)O)nc3)c2OC(C)C)n2ccnc(N)c12`
Fulfilled

----------
biological target: recombinant PI3K (p110α/p85α) (Homo sapiens, UniProt P42336); assay: PI3Kα ADP-Glo kinase assay; format: biochemical; details: read-out: PI3Kα Enzyme activity IC50
Below, each entry is listed alongside its reported IC50.
Number only, in µM; omit the unit.

Observe how each entry below is paired with its result.
compound | IC50 / µM
CC(C)Oc1c(C(C)c2nc(Cl)c3c(N)nccn23)cc(Cl)c(F)c1-c1ccc(C(=O)O)nc1 (centres unmarked) | 7.1
CCOc1c(C(C)c2nc(Cl)c3c(N)nccn23)cc(Cl)c(F)c1-c1ccc(C(F)(F)F)nc1 (centres unmarked) | 2.7
CCOc1c(C(C)c2nc(Cl)c3c(N)nccn23)cc(Cl)c(C)c1-c1ccc(OCCOC)nc1 (centres unmarked) | 2.2

Please look up its IC50: `Cc1nc([C@@H](C)c2cc(Cl)c(F)c(-c3ccc(C(N)=NO)nc3)c2OC(C)C)n2ccnc(N)c12`
4.3

Please look up its IC50: `CCOc1c([C@H](C)c2nc(Cl)c3c(N)nccn23)cc(Cl)c(C)c1-c1ccc(C(=O)O)nc1`
1.3
